# ASSAY EXPLANATION: Total plasma concentration in wild type Crl:CF1 mouse expressing Abcb1a mutant at 4 mg/kg/day administered through continuous minipump treatment for 3 days by UPLC-MS analysis
# Format: ADME, organism-based
# ASSAY CONTEXT: other: continuous minipump

| ITEM SMILES | concentration at 72 h, ng/mL |
| --- | --- |
| Cc1nc2n(c(=O)c1CCN1CCC(c3noc4cc(F)ccc34)CC1)CCCC2 | 43 |

====

# ASSAY EXPLANATION: Total drug level in wild type Crl:CF1 mouse brain expressing Abcb1a mutant at 12 mg/kg/day administered through continuous minipump treatment for 3 days by UPLC-MS analysis
# Type: ADME, organism-based
# ASSAY CONTEXT: other: continuous minipump, read-out: Drug uptake

| COMPOUND | UNITS | concentration at 72 h |
| --- | --- | --- |
| COc1ccc(C(CN(C)C)C2(O)CCCCC2)cc1.Cl (stereo unspecified) [VENLAFAXINE HYDROCHLORIDE] | ng/g | 403 |
